Assay: Phase 1/2 clinical study, plasma pharmacokinetic evaluation
Assay type: in vivo, human
Conditions: human, plasma, oral, 140 mg, Cycle 2 Day 1; 140 mg BID Arm A (without azole); N=5 (two MDS patients included, one pt excluded); mean
VALUE TYPE: AUC(0-t) (ng·h/mL)
Kindly provide the numeric value in ng·h/mL only, without the unit symbol.

For this molecule ( `C=C1C[C@@H]2CC[C@H]1[C@@H](C(=O)N1CCC3(CC1)CN(c1ncncc1Oc1ccc(F)cc1C(=O)N(C(C)C)C(C)C)C3)N2` ), measured AUC(0-t) is 4200

---

Experiment: Phase 1/2 clinical study, plasma pharmacokinetic evaluation
Assay type: in vivo, human
Settings: human, plasma, oral, 140 mg, Cycle 2 Day 1; 140 mg BID Arm B (with azole); N=1
VALUE TYPE: Cmax (ng/mL)
Kindly provide the numeric value in ng/mL only, without the unit symbol.

For this molecule ( `C=C1C[C@@H]2CC[C@H]1[C@@H](C(=O)N1CCC3(CC1)CN(c1ncncc1Oc1ccc(F)cc1C(=O)N(C(C)C)C(C)C)C3)N2` ), measured Cmax is 1770

---

Test: Phase 1/2 clinical study, plasma pharmacokinetic evaluation
Type: in vivo, human
Details: human, plasma, oral, 60 mg, Cycle 1 Day 1; 60 mg BID Arm B (with azole); N=6; mean
VALUE TYPE: Cmax (ng/mL)
Kindly provide the numeric value in ng/mL only, without the unit symbol.

For this compound ( C=C1C[C@@H]2CC[C@H]1[C@@H](C(=O)N1CCC3(CC1)CN(c1ncncc1Oc1ccc(F)cc1C(=O)N(C(C)C)C(C)C)C3)N2 [the present compound] ), measured Cmax is 1170

---

Test: Phase 1/2 clinical study, plasma pharmacokinetic evaluation
Type: in vivo, human
Details: human, plasma, oral, 300 mg, Cycle 1 Day 1; 300 mg BID Arm A (without azole); N=4; mean
VALUE TYPE: AUC(0-t) (ng·h/mL)
Kindly provide the numeric value in ng·h/mL only, without the unit symbol.

For this compound ( `C=C1C[C@@H]2CC[C@H]1[C@@H](C(=O)N1CCC3(CC1)CN(c1ncncc1Oc1ccc(F)cc1C(=O)N(C(C)C)C(C)C)C3)N2` ), measured AUC(0-t) is 15900

---

Assay: Phase 1/2 clinical study, plasma pharmacokinetic evaluation
Type: in vivo, human
Conditions: human, plasma, oral, 40 mg, 40 mg BID Arm B, C2D1, N=2, mean
VALUE TYPE: Tmax

For this compound ( `C=C1C[C@@H]2CC[C@H]1[C@@H](C(=O)N1CCC3(CC1)CN(c1ncncc1Oc1ccc(F)cc1C(=O)N(C(C)C)C(C)C)C3)N2` ), measured Tmax is 1.25 h

---

Assay: Phase 1/2 clinical study, plasma pharmacokinetic evaluation
Assay type: in vivo, human
Settings: human, plasma, oral, 100 mg, Cycle 2 Day 1; 100 mg BID Arm A (without azole); N=1
VALUE TYPE: AUC(0-t) (ng·h/mL)
Kindly provide the numeric value in ng·h/mL only, without the unit symbol.

For this molecule ( `C=C1C[C@@H]2CC[C@H]1[C@@H](C(=O)N1CCC3(CC1)CN(c1ncncc1Oc1ccc(F)cc1C(=O)N(C(C)C)C(C)C)C3)N2` ), measured AUC(0-t) is 6060

---

Experiment: Phase 1/2 clinical study, plasma pharmacokinetic evaluation
Format: in vivo, human
Conditions: human, plasma, oral, 100 mg, Cycle 1 Day 1; 100 mg BID Arm B (with azole); N=4; mean
VALUE TYPE: Cmax (ng/mL)
Kindly provide the numeric value in ng/mL only, without the unit symbol.

For this compound ( `C=C1C[C@@H]2CC[C@H]1[C@@H](C(=O)N1CCC3(CC1)CN(c1ncncc1Oc1ccc(F)cc1C(=O)N(C(C)C)C(C)C)C3)N2` ), measured Cmax is 1650

---

Experiment: Phase 1/2 clinical study, plasma pharmacokinetic evaluation
Format: in vivo, human
Conditions: human, plasma, oral, 80 mg, 80 mg BID Arm A, C1D1, N=4, mean
Procedure: In the present test of the present compound, PK samples have been collected in up to 24 patients dosed in dose groups of 40, 80, 100, and 120 mg BID Arm A, and in dose groups of 40 and 60 mg BID Arm B (Table 6). Large preliminary PK inter-patient variability was observed. (1) In the present study, PK samples have been collected in up to 42 patients dosed in dose groups of 40, 80, 100, 120, 140 and 200 mg BID Arm A, and in dose groups of 40, 60, 100, and 200 mg BID Arm B (Table 15). […]
VALUE TYPE: Cmax (ng/mL)
Kindly provide the numeric value in ng/mL only, without the unit symbol.

For this molecule ( C=C1C[C@@H]2CC[C@H]1[C@@H](C(=O)N1CCC3(CC1)CN(c1ncncc1Oc1ccc(F)cc1C(=O)N(C(C)C)C(C)C)C3)N2 [the present compound] ), measured Cmax is 1620

---

Test: Phase 1/2 clinical study, plasma pharmacokinetic evaluation
Assay type: in vivo, human
Settings: human, plasma, oral, 300 mg, Cycle 1 Day 1; 300 mg BID Arm B (with azole); N=3 (one patient pending re-assay); mean
VALUE TYPE: AUC(0-t) (ng·h/mL)
Kindly provide the numeric value in ng·h/mL only, without the unit symbol.

For this molecule ( `C=C1C[C@@H]2CC[C@H]1[C@@H](C(=O)N1CCC3(CC1)CN(c1ncncc1Oc1ccc(F)cc1C(=O)N(C(C)C)C(C)C)C3)N2` ), measured AUC(0-t) is 26000

---

Experiment: Phase 1/2 clinical study, plasma pharmacokinetic evaluation
Type: in vivo
Details: human, oral, 140 mg, Cycle 1 Day 1, 140 mg BID Arm B (with azole), N=2, mean
VALUE TYPE: Cmax (ng/mL)
Kindly provide the numeric value in ng/mL only, without the unit symbol.

For this compound ( C=C1C[C@@H]2CC[C@H]1[C@@H](C(=O)N1CCC3(CC1)CN(c1ncncc1Oc1ccc(F)cc1C(=O)N(C(C)C)C(C)C)C3)N2 [the present compound] ), measured Cmax is 3100

---

Assay: Phase 1/2 clinical study, plasma pharmacokinetic evaluation
Type: in vivo, human
Details: human, plasma, oral, 100 mg, Table 15 cut-off; 100 mg BID Arm A, Cycle 2 Day 1, N=1
VALUE TYPE: AUC(0-t) (ng·h/mL)
Kindly provide the numeric value in ng·h/mL only, without the unit symbol.

For this compound ( C=C1C[C@@H]2CC[C@H]1[C@@H](C(=O)N1CCC3(CC1)CN(c1ncncc1Oc1ccc(F)cc1C(=O)N(C(C)C)C(C)C)C3)N2 [the present compound] ), measured AUC(0-t) is 6060

---

Assay: Phase 1/2 clinical study, plasma pharmacokinetic evaluation
Type: in vivo, human
Conditions: human, plasma, oral, 80 mg, Table 15 cut-off; 80 mg BID Arm A, Cycle 2 Day 1, N=2, mean
VALUE TYPE: Cmax (ng/mL)
Kindly provide the numeric value in ng/mL only, without the unit symbol.

For this molecule ( `C=C1C[C@@H]2CC[C@H]1[C@@H](C(=O)N1CCC3(CC1)CN(c1ncncc1Oc1ccc(F)cc1C(=O)N(C(C)C)C(C)C)C3)N2` ), measured Cmax is 1400

---

Assay: Phase 1/2 clinical study, plasma pharmacokinetic evaluation
Format: in vivo, human
Conditions: human, plasma, oral, 100 mg, Cycle 1 Day 1; 100 mg BID Arm A (without azole); N=2; mean
Protocol: In the present test of the present compound, PK samples have been collected in up to 24 patients dosed in dose groups of 40, 80, 100, and 120 mg BID Arm A, and in dose groups of 40 and 60 mg BID Arm B (Table 6). Large preliminary PK inter-patient variability was observed. (1) In the present study, PK samples have been collected in up to 42 patients dosed in dose groups of 40, 80, 100, 120, 140 and 200 mg BID Arm A, and in dose groups of 40, 60, 100, and 200 mg BID Arm B (Table 15). […]
VALUE TYPE: Cmax

For this molecule ( `C=C1C[C@@H]2CC[C@H]1[C@@H](C(=O)N1CCC3(CC1)CN(c1ncncc1Oc1ccc(F)cc1C(=O)N(C(C)C)C(C)C)C3)N2` ), measured Cmax is 1380 ng/mL

---

Test: Phase 1/2 clinical study, plasma pharmacokinetic evaluation
Assay type: in vivo, human
Settings: human, plasma, oral, 40 mg, Cycle 2 Day 1; 40 mg BID Arm A (without azole); N=1
VALUE TYPE: AUC(0-t)
The reply should read as a number followed by its unit.

For this compound ( C=C1C[C@@H]2CC[C@H]1[C@@H](C(=O)N1CCC3(CC1)CN(c1ncncc1Oc1ccc(F)cc1C(=O)N(C(C)C)C(C)C)C3)N2 [the present compound] ), measured AUC(0-t) is 4730 ng·h/mL

---

Experiment: Phase 1/2 clinical study, plasma pharmacokinetic evaluation
Format: in vivo, human
Details: human, plasma, oral, Arm A, 40-120 mg BID; read-out: Mean plasma t1/2
VALUE TYPE: half-life

For this compound ( `C=C1C[C@@H]2CC[C@H]1[C@@H](C(=O)N1CCC3(CC1)CN(c1ncncc1Oc1ccc(F)cc1C(=O)N(C(C)C)C(C)C)C3)N2` ), measured half-life is 2.82 to 5.64 h
